- target entity: Fuc(a1-3)[Gal(b1-4)]GlcNAc(b1-2)Man(a1-6)[Gal(b1-4)GlcNAc(b1-2)Man(a1-3)]Man(b1-4)GlcNAc(b1-4)GlcNAc
- protocol summary: glycan array binding signal (z-score within array); higher = stronger binding
- measurement parameters: glycan notation: IUPAC condensed, linker removed
The entries come from a sample that favours the strongest signals as a whole.
measured metric: glycan array binding signal (z-score)
Numbers only.

Previously resolved entries follow.
binder	measured metric	readout value
NcCVNHO (Neurospora crassa), Q7S6U4 (protein) MSFHVTAEDARIEVRDNRTILFARLRREDGEWNDASYELDQIIGNNDGHFQWGGQNFTETAEDIRFHPKEGAAEQPILRARLRDCNGEFHDRDVNLTEIVENVNGEFQAKF	glycan array binding signal (z-score)	-0.185
SLR2P3F12 (Tachypleus tridentatus), TAL2_TACTR (protein) MEKGTPPTHDSDNWMGRAKKIGNGGWNQFQFLFFDPNGYLYAVSKDKLYKASPPQSDTDNWIARATEIGSGGWSGFKSLFFHPNGYLYAVHGQRLYKALPPVSNQD	glycan array binding signal (z-score)	0.218

Attention now shifts to the item below.
Challenge: Record request: glycan array binding signal (z-score) value, item Codakine (Codakia orbicularis), Q3KVL7_9BIVA (protein) MKILVAVFLVLVVVGTAAAGCPDGWTQFLDLCYIYQSAKASWASAQSSCQALGGILAEPDTACENEVLIHMCRENGDAGSFGPWLGGQKVGGAWQWSSSGAAFDYLRWGPNEPNNSGGNEDCLHYNWLSWNDLRCHYQASYLCQRAAE
Response given: 6.48
